test: in vivo; conditions: rat, po, 50 mg/kg
experimentalEndpoint: AUC(0-inf) (µg·h/mL)
Entry rule: numbers only, all in µg·h/mL.

Query: // lookup AUC(0-inf) for OC1C(O)C(O)C(O)C(O)C1O (stereo not shown)
Reply: 298

----------
experiment: in vivo; conditions: rat, po, 50 mg/kg
experimentalEndpoint: Vd (L/kg)
Entry rule: numbers only, all in L/kg.

Query: // lookup Vd for OC1C(O)C(O)C(O)C(O)C1O (stereo not shown) [AZD-103, scyllo-inositol]
Reply: 2.13

----------
test: clinical; settings: male, human, in vivo, po, 500 mg
experimentalEndpoint: half-life (h)
Entry rule: numbers only, all in h.

Query: // lookup half-life for OC1C(O)C(O)C(O)C(O)C1O (stereo not shown)
Reply: 13.3
